Molecular target: SSTR1 (Homo sapiens, UniProt P30872)
Construct: purchased Perkin Elmer ES-520-M400UA; host or cells: CHO-K1 membranes
Sequence (P30872 whole entry): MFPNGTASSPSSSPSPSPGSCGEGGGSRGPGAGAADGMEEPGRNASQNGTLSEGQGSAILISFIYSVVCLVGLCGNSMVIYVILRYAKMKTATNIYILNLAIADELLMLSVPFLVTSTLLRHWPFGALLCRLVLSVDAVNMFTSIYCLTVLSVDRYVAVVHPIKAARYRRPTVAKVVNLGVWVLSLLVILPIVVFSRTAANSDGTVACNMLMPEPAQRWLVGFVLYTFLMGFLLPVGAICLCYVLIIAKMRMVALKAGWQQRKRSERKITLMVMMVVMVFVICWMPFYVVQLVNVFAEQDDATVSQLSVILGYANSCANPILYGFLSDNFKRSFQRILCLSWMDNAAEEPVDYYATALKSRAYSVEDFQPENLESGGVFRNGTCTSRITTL
Test: SSTR1 I-125 somatostatin competition binding assay for selectivity versus SSTR1 (CHO-K1 membranes)
Conditions: competition with I-125 somatostatin, membranes from CHO-K1 overexpressing SSTR1; read-out: SSTR1 Binding pIC50 (converted)
Protocol: SSTR1 I-125 Somatostatin Competition Binding Assay for Selectivity Versus SSTR1 Membranes from CHO-K1 cells overexpressing SSTR1 are purchased from Perkin Elmer (catalog number ES-520-M400UA). Test compounds are suspended in DMSO and then diluted in assay buffer (25 mM HEPES pH 7.4, 10 mM MgCl2, 1 mM CaCl2), 0.5% BSA) plus 0.4 nM I-125 labeled somatostatin (Perkin Elmer catalog number NEX389). […] The filters are then read in a MicroBeta scintillation counter. […]
Categorized via IC50: lowest: < 6 µM; middle: ≥ 6 µM and < 20 µM; highest: ≥ 20 µM

Please review the entries below; each comes with its answer.
CC[C@H](CN1CCC1)C(=O)NC(C)(C)c1ccc(F)cc1 (single isomer, unassigned) [Example 182] = lowest
Cc1c(Cl)cccc1C(C)(C)NC(=O)C[C@@H]1CCCN1C [Example 118] = highest
CN1CCCC1CC(=O)NC(C)(C)COc1ncccc1C(F)(F)F (centres unmarked) [Example 28] = middle
CC(C)(NC(=O)CCN1CCC1)c1ccc(Cl)cc1 [Example 165] = highest
CC(C)(NC(=O)CCN1CCCC1)c1nccc2ccccc12 [Example 5] = lowest

Challenge: Class? Entry: CN1CCC[C@@H]1CC(=O)NC(C)(C)COc1ncccc1C(F)(F)F [Example 49]
Response given: middle

Challenge: Class? Entry: CN1CCC[C@@H]1CC(=O)NC(C)(C)c1cc(Cl)ccc1Cl [Example 38]
Response given: highest

Challenge: Class? Entry: C[C@@H](C(=O)NC(C)(C)c1nccc2ccccc12)[C@H]1CCCN1C (racemic) [Example 111]
Response given: lowest

Challenge: Class? Entry: Cc1ccc(C(C)(C)NC(=O)[C@@H](C)CN2CCC2)cc1 (single isomer, unassigned) [Example 149]
Response given: middle

Challenge: Class? Entry: CN1CCCCC1CC(=O)NC(C)(C)c1cccc(Cl)c1 (centres unmarked) [Example 11]
Response given: highest

Challenge: Class? Entry: C[C@@H](CN1CCC1)C(=O)NC(C)(C)c1cccc(F)c1 (single isomer, unassigned) [Example 153]
Response given: middle

Challenge: Class? Entry: CN1CCC[C@H]1CC(=O)NC(C)(C)c1nccc2ccccc12 [Example 24]
Response given: middle

Challenge: Class? Entry: Cc1cccc2c(C(C)(C)NC(=O)C[C@H]3CCCCN3C)noc12 (single isomer, unassigned) [Example 43]
Response given: lowest

Challenge: Class? Entry: COc1c(F)cccc1C(C)(C)NC(=O)[C@H](C)CN1CCC1 (single isomer, unassigned) [Example 171]
Response given: lowest

Challenge: Class? Entry: C[C@@H](CN1CCC1)C(=O)NC1(c2ccccc2F)CC1 (single isomer, unassigned) [Example 151]
Response given: middle

Challenge: Class? Entry: Cc1cccc2c(C(C)(C)NC(=O)C[C@@H]3CCCCN3C)noc12 (single isomer, unassigned) [Example 44]
Response given: middle
